From: patent US9540363B2

assay: Water sorption and desorption (hygroscopicity) of crystalline forms; format: physicochemical; conditions: crystalline solid form
readout.label: hygroscopicity

compound: CN[C@@H](C)C(=O)N[C@H](C(=O)N1CCC[C@H]1c1nc(C(=O)c2ccc(F)cc2)cs1)C1CCCCC1 [Form D]
result.value: slightly hygroscopic
--
compound: CN[C@@H](C)C(=O)N[C@H](C(=O)N1CCC[C@H]1c1nc(C(=O)c2ccc(F)cc2)cs1)C1CCCCC1 [Form A]
result.value: slightly hygroscopic
--
compound: CN[C@@H](C)C(=O)N[C@H](C(=O)N1CCC[C@H]1c1nc(C(=O)c2ccc(F)cc2)cs1)C1CCCCC1 [Form B]
result.value: slightly hygroscopic
--
compound: CN[C@@H](C)C(=O)N[C@H](C(=O)N1CCC[C@H]1c1nc(C(=O)c2ccc(F)cc2)cs1)C1CCCCC1 [Form HA]
result.value: slightly hygroscopic
